- assay.target: recombinant soluble homotrimeric HA of A/Indonesia/5/05 (H5N1) (Influenza A virus A/Indonesia/5/2005 (H5N1))
- procedure.text: HA microarray, BCC supernatant
- condition.details: remark: other sources report otherwise
assay.metric: Trimeric HA Binding RLU (RLU)
# number only, unit RLU dropped from output

Task item: Tell me the measured Trimeric HA Binding RLU of TCN-563 (5237_B21) (antibody, V domains shown) VH: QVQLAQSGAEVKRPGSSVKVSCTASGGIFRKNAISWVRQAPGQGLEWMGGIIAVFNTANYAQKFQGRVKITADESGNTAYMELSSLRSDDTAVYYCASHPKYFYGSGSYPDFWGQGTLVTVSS VL: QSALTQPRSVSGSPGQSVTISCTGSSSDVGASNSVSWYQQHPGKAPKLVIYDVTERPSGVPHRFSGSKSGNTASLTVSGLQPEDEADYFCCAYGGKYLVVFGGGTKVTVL , please.
Reply: 39500

Task item: For TCN-550 (5096_F06) (antibody, V domains shown) VH: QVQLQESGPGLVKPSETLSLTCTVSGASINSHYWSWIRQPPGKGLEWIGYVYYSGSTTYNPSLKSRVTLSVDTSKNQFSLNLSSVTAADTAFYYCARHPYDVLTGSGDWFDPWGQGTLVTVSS VL: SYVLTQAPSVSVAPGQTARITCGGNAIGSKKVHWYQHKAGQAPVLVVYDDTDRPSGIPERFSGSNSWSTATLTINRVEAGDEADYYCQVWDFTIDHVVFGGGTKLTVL then?
Reply: 9100

Task item: For TCN-523 (5248_A17) (antibody, V domains shown) VH: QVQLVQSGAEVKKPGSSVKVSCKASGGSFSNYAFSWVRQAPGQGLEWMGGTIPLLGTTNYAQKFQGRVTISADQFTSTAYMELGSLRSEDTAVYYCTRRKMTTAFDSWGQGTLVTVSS VL: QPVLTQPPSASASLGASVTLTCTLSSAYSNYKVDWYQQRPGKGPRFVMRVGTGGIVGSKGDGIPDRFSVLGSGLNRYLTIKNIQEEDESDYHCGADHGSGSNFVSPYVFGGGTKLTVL then?
Reply: 45800

Task item: For TCN-528 (5087_P17) (antibody, V domains shown) VH: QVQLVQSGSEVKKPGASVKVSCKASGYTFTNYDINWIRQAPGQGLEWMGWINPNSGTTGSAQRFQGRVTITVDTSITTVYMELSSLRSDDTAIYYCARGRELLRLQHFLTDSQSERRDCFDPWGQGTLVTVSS VL: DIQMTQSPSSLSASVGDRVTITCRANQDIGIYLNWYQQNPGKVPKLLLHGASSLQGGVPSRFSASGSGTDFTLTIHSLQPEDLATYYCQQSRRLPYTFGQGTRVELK then?
Reply: 42800

Task item: For TCN-530 (5248_H10a) (antibody, V domains shown) VH: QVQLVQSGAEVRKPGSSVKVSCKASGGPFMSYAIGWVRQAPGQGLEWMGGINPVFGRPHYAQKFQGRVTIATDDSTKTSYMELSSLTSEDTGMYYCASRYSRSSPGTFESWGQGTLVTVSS VL: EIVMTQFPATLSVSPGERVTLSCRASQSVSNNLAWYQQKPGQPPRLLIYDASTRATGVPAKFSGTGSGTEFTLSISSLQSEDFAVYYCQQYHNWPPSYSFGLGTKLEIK then?
Reply: 39800
